- assayRemarks: Concentration of metabolites in rat brain tissue after intravenous injection of I1s
- Type: in vivo
- measurementParameters: male, Sprague-Dawley, rat, brain, iv, 25 mg/kg, 1 h after intravenous injection of I1s; read-out: Concentration in brain tissue, Mean
metricName: concentration at 1 h (ng/g)

compound="CCCC[C@H](O)c1ccccc1C(=O)O [M3, (S)-2-(1-hydroxy-n-pentyl)benzoic acid]" quantitativereadout=35.9
